- TARGET: Ras GEF SOS (Son of Sevenless) (Homo sapiens, UniProt Q07889)
- Sequence (Q07889 564-1049 limits assumed): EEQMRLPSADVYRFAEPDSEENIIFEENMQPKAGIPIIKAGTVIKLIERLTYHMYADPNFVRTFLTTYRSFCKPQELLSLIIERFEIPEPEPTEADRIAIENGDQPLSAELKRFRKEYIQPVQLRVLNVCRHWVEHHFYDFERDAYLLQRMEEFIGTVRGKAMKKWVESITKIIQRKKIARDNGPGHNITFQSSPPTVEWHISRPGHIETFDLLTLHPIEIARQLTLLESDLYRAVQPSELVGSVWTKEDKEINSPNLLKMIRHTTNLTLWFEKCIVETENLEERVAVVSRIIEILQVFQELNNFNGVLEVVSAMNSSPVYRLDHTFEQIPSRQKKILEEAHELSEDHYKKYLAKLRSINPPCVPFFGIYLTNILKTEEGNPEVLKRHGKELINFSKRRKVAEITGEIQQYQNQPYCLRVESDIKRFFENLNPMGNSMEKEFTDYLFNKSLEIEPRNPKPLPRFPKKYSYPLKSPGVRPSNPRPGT
- Sequence (P01112 1-166 partner limits assumed): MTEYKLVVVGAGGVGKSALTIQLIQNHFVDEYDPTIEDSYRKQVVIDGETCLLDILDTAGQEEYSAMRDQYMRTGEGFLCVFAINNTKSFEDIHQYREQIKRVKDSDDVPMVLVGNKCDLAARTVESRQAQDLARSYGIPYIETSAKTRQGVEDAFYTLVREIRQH
- PROCEDURE_DETAILS: SOS-mediated nucleotide exchange on Ras (BODIPY-GDP fluorescence)
- Assay type: biochemical
- ASSAY_CONDITIONS: SOS-mediated exchange of BODIPY-GDP for GTP on Ras
Structures can show the parent of a compound that is named as a salt.
MEASUREMENT_KIND: EC50

For this compound ( Cc1cc(OCCN2CCN(C)CC2)c2nc(N3CCNCC3)n(Cc3cc(C)c(F)c(C)c3)c2c1 [Example 201] ), measured EC50 is < 1 µM

For this compound ( NC(CO)c1cc(Cl)cc2c1nc(N1CCNCC1)n2Cc1ccc(F)c(Cl)c1 (centres unmarked) [Example 283] ), measured EC50 is 5 to 30 µM

For this compound ( Cc1cc(Cn2c(N3CCNCC3)nc3c(OCCN4CCN(C)CC4)cccc32)ccc1F [Example 209] ), measured EC50 is < 1 µM

For this compound ( Cc1cc(Cn2c(N3CCNCC3)nc3c(C(N)C(=O)O)cc(Cl)cc32)cc(C)c1F (centres unmarked) [Example 282] ), measured EC50 is 1 to 5 µM

For this compound ( Cc1cc2nc(N3CCNCC3)n(Cc3ccc(F)cc3)c2cc1C [Example 21, trifluoroacetate] ), measured EC50 is 5 to 30 µM

For this compound ( OCc1cc(Cl)cc2c1nc(N1CCNCC1)n2Cc1ccc(F)c(Cl)c1 [Example 278] ), measured EC50 is < 1 µM

For this compound ( Cc1cc2c(nc(N3CCNCC3)n2Cc2ccc(F)c(Cl)c2)c(-c2ccnn2-c2ccc(Br)cc2)c1C [Example 172, trifluoroacetate] ), measured EC50 is 1 to 5 µM

For this compound ( Cc1cc(Cn2c(NCC3CNC3)nc3ccc(OC(C)C(F)(F)F)nc32)ccc1F (centres unmarked) [Example 260] ), measured EC50 is 5 to 30 µM
